This collection of values is drawn from ChEMBL document CHEMBL4321805.

Molecular target: Phosphatidylinositol 4,5-bisphosphate 3-kinase catalytic subunit alpha isoform (Homo sapiens, UniProt P42336)
Sequence (P42336 whole entry, the tested form may be a part, canonical isoform): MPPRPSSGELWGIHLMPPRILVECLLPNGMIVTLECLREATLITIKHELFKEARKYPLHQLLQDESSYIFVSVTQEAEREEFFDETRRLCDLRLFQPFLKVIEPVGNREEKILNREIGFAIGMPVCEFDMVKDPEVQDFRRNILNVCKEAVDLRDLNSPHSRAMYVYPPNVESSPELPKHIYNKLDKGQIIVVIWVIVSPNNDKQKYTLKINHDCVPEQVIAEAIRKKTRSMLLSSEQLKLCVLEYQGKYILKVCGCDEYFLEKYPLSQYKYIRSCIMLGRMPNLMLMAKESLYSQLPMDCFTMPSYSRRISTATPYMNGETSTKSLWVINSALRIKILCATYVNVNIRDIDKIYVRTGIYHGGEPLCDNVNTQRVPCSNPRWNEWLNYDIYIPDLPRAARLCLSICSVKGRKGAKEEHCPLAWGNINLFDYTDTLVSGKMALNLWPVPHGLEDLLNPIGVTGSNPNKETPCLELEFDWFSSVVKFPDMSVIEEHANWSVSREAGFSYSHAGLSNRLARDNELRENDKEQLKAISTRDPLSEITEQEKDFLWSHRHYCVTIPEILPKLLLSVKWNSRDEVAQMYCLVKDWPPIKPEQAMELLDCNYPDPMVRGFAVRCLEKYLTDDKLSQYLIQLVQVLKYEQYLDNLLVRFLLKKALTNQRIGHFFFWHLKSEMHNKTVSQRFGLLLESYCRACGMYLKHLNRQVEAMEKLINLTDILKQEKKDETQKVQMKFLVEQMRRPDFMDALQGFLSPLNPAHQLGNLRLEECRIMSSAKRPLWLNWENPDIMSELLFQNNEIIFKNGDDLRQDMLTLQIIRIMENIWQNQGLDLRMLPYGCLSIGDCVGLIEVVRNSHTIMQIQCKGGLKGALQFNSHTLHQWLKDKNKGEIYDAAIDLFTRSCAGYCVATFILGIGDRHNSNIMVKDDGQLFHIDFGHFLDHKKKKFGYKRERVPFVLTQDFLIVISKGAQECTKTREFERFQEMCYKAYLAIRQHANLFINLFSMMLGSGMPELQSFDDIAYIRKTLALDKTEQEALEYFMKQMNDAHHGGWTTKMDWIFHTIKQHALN
Experiment: Binding affinity to human wild-type partial length PI3Kalpha (R108 to N1068 residues) expressed in mammalian expression system by kinome scan assay
pKd: −log10 of the molar value.
test-readout: pKd

compound-structure: C[C@@H]1COCCN1c1nc(-c2cnc(N)nc2)nc2c1C[C@@H]1COCCN21
assay-result: 6.92

I = C[C@@H]1COCCN1c1nc(-c2ccc(N)nc2)nc2c1C[C@@H]1COCCN21
II = C[C@@H]1COCCN1c1nc(-c2cnc(N)cn2)nc2c1C[C@@H]1COCCN21
Larger number for pKd: I , or II ? Field: selected label. Fill in the label of the entry you choose.
I

---

Target: CYP1A1 (Homo sapiens, UniProt P04798)
Sequence (P04798 whole entry): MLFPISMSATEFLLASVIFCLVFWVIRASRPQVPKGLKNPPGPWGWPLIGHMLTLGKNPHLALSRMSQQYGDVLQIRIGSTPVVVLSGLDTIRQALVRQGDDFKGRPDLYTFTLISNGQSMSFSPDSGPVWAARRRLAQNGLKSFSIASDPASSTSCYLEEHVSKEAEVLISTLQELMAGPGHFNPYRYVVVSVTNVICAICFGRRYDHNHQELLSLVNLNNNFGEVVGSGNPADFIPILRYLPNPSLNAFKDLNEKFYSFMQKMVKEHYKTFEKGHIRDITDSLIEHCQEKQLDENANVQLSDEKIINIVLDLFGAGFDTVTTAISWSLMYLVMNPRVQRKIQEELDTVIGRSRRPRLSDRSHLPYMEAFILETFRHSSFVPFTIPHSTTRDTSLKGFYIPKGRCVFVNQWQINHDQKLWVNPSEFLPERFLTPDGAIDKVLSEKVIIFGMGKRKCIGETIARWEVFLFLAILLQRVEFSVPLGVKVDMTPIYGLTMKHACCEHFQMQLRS
Experiment: Substrate activity at recombinant human CYP1A1 expressed in baculovirus infected insect cells assessed as parent compound remaining at 1 uM incubated for 60 mins in presence of NADP+-regenerating system by LC-MS analysis
Format: ADME
Details: read-out: Stability
test-readout: remaining at 1 h, 1 µM (%)

P = C[C@@H]1COCCN1c1nc(-c2cnc(N)nc2)nc2c1C[C@@H]1COCCN21
Q = C[C@@H]1COCCN1c1nc(-c2cnc(N)cn2)nc2c1C[C@@H]1COCCN21
// task: argmin of remaining at 1 h, 1 µM over [ P , Q ] Write down the label attached to your selection.
P
(P: 51%, Q: 77%)

---

Target: Phosphatidylinositol 4,5-bisphosphate 3-kinase catalytic subunit beta isoform (Homo sapiens, UniProt P42338)
Sequence (P42338 whole entry, the tested form may be a part, canonical isoform): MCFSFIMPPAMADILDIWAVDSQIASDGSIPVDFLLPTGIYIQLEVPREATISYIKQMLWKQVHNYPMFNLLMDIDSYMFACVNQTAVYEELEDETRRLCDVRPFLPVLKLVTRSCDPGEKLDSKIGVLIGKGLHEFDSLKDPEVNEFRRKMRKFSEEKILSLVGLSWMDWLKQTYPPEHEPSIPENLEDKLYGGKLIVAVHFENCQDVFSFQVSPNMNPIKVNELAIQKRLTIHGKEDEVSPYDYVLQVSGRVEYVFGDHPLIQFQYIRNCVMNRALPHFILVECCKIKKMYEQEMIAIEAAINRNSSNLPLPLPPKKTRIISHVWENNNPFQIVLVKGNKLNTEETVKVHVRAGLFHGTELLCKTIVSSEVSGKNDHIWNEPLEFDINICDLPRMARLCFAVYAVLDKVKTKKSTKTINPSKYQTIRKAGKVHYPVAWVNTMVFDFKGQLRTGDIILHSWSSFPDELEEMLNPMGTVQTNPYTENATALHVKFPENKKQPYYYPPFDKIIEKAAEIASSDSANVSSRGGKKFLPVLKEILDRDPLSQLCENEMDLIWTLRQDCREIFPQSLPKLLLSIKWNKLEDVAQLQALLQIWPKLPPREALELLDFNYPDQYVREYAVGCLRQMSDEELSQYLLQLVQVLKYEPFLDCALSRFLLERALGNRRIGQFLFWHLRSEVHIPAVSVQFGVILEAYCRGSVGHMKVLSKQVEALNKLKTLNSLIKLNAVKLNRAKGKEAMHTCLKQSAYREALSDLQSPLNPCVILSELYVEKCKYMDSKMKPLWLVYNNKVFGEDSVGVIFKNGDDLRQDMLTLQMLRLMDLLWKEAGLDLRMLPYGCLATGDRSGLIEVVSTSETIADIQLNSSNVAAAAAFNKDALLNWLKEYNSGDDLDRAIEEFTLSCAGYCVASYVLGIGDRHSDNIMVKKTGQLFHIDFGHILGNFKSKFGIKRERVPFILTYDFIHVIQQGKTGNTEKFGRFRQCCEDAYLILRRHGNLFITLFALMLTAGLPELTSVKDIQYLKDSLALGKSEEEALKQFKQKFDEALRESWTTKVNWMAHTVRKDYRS
Assay: Binding affinity to human wild-type partial length PI3Kbeta (P118 to S1070 residues) expressed in mammalian expression system by kinome scan assay
pKd: −log10 of the molar value.
test-readout: pKd

compound-structure: C[C@@H]1COCCN1c1nc(-c2cnc(N)nc2)nc2c1C[C@@H]1COCCN21
assay-result: 5.85

a = C[C@@H]1COCCN1c1nc(-c2ccc(N)nc2)nc2c1C[C@@H]1COCCN21
b = C[C@@H]1COCCN1c1nc(-c2cnc(N)cn2)nc2c1C[C@@H]1COCCN21
Looking at a and b , which one comes out lower in pKd terms? API: response body contains the label of the selected item.
b

---

Organism: Homo sapiens
Test: Selectivity ratio of Ki for inhibition of alexa fluor 647-labeled kinase tracer 314 binding to recombinant human full-length N-terminal His6-tagged p110alpha/p85alpha expressed in baculovirus expression system to Ki for inhibition of alexa fluor 647-labeled kinase tracer 314 binding to recombinant human N-terminal GST-fused mTOR (1360 to 2549 residues) expressed in baculovirus expression system
test-readout: Ratio Ki

compound-structure: COC(OC)c1nc(N)ncc1-c1nc2c(c(N3CCOC[C@H]3C)n1)C[C@@H]1COCCN21
assay-result: 2

1 = C[C@@H]1COCCN1c1nc(-c2cnc(N)cn2)nc2c1C[C@@H]1COCCN21
2 = Nc1ccc(-c2nc(N3CC4CCC(C3)O4)c3c(n2)N2CCOC[C@H]2C3)cn1
Consider 1 and 2 . Which of these has its Ratio Ki at a higher number? // return label of chosen record
1

P = Nc1ccc(-c2nc(N3C4CCC3COC4)c3c(n2)N2CCOC[C@H]2C3)cn1
Q = CC1(C)COCCN1c1nc(-c2ccc(N)nc2)nc2c1C[C@H]1COCCN21
R = Nc1ccc(-c2nc(N3CC4CCC(C3)O4)c3c(n2)N2CCOC[C@@H]2C3)cn1
// ascending sort on recorded Ratio Ki Note for the reader: the ranking is given by listing the labels in the order requested.
R, P, Q
